Target or test system: KRAS (G12C) (Homo sapiens, UniProt P01116, G12C)
Construct: purchased BPS Bioscience 79859
Sequence (P01116 1-188 isoform P01116-2 G12C): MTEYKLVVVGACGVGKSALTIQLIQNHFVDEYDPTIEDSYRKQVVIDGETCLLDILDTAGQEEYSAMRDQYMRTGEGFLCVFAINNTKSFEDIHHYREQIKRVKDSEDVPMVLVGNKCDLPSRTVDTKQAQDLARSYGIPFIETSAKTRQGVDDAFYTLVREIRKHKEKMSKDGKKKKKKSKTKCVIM
Experiment description: KRAS G12C Nucleotide Exchange Assay (fixed GTP concentration)
Type: biochemical
Reported conditions: KRAS (G12C) labeled with BODIPY-GDP; fixed GTP concentration; 2 hours compound incubation; fluorescence readout; read-out: IC50
Endpoint: IC50

C=CC(=O)N1CCN(c2nc(OC[C@@H]3CCCN3CCCNC(=O)c3cccc(I)c3)nc3c2CCN(c2cccc4cccc(Cl)c24)C3)C[C@@H]1CC#N ... 1 to 10 µM
C=CC(=O)N1CCN(c2nc(OC[C@@H]3CCCN3CCNC(=O)CN3CCN4CCN5CCN(CC3)CC(=O)[O][Lu]([O]C(=O)C4)[O]C(=O)C5)nc3c2CCN(c2cccc4cccc(Cl)c24)C3)C[C@@H]1CC#N ... 1 to 10 µM
C=CC(=O)N1CCN(c2nc(OC[C@@H]3CCCN3CCCOCc3cccc(I)c3)nc3c2CCN(c2cccc4cccc(Cl)c24)C3)C[C@@H]1CC#N ... 1 to 10 µM
C=CC(=O)N1CCN(c2nc(OC[C@@H]3CCCN3CCCCOCc3cccc(I)c3)nc3c2CCN(c2cccc4cccc(Cl)c24)C3)C[C@@H]1CC#N ... 1 to 10 µM

Note: attention shifts to another entry.
Give the reported value of IC50 for this record: C=CC(=O)N1CCN(c2nc(OC[C@@H]3CCCN3C)nc3c2CCN(c2cccc4cccc(I)c24)C3)C[C@@H]1CC#N
1 to 10 µM

All values here come from patent US20240252694A1.
